test system: HCT-8; test: Cytotoxicity against human HCT8 cells after 3 days by MTT assay; format: functional, cell-based; conditions: HCT-8, 72 h
READOUT: IC50 (µM)
Write down the numeric answer in µM and omit the unit.

Query :: I am curious: what IC50 value has been reported for COc1cc2c3cc1Oc1cc(ccc1O)C[C@@H]1c4c(cc(OC)c5c4Oc4ccc(cc4CO5)C[C@H]3N(C)CC2)CCN1C [RACEMOSIDINE A] ?
Result :: 2.8

Query :: I am curious: what IC50 value has been reported for COc1ccc2cc1Oc1cc3c(cc1OC)CCN(C)[C@@H]3Cc1ccc(cc1)Oc1c(OC)c(O)cc3c1[C@H](C2)N(C)CC3 [RACEMOSIDINE C] ?
Result :: 6.04

Query :: I am curious: what IC50 value has been reported for COc1cc2c3cc1Oc1cc(ccc1O)C[C@H]1c4c(cc(OC)c(OC)c4Oc4ccc(cc4)C[C@H]3N(C)CC2)CCN1C [RACEMOSIDINE B] ?
Result :: 9.72

Query :: I am curious: what IC50 value has been reported for `CC(=O)O[C@H]1C(=O)[C@@]2(C)[C@H]([C@H](OC(=O)c3ccccc3)[C@]3(O)C[C@H](OC(=O)[C@H](O)[C@@H](NC(=O)c4ccccc4)c4ccccc4)C(C)=C1C3(C)C)[C@]1(OC(C)=O)CO[C@@H]1C[C@@H]2O` ?
Result :: 0.67

* * *

test system: A2780; assay: Cytotoxicity against human A2780 cells after 3 days by MTT assay; type: functional, cell-based; conditions: A2780, 72 h
pIC50: −log10 of the molar value.
READOUT: pIC50

Recorded results for 2 compounds are shown here.
COc1cc2c3cc1Oc1c(O)c(OC)cc4ccnc(c14)Cc1ccc(cc1)Oc1cc(ccc1O)C[C@H]3[N+](C)([O-])CC2 (stereo partly drawn) [RACEMOSININE C]
< 5.00
CC(=O)O[C@H]1C(=O)[C@@]2(C)[C@H]([C@H](OC(=O)c3ccccc3)[C@]3(O)C[C@H](OC(=O)[C@H](O)[C@@H](NC(=O)c4ccccc4)c4ccccc4)C(C)=C1C3(C)C)[C@]1(OC(C)=O)CO[C@@H]1C[C@@H]2O [PACLITAXEL]
6.19

Query :: I am curious: what pIC50 value has been reported for COc1cc2c3cc1Oc1c(O)c(OC)cc4ccnc(c14)Cc1ccc(cc1)Oc1cc(ccc1O)C[C@H]3N(C)CC2 [RACEMOSININE B] ?
Result :: < 5.00

Query :: I am curious: what pIC50 value has been reported for COc1cc2c3cc1Oc1cc(ccc1O)C[C@@H]1c4c(cc(OC)c5c4Oc4ccc(cc4CO5)C[C@H]3N(C)CC2)CCN1C [RACEMOSIDINE A] ?
Result :: 5.17

Query :: I am curious: what pIC50 value has been reported for COc1ccc2cc1Oc1cc3c(cc1OC)CCN(C)[C@@H]3Cc1ccc(cc1)Oc1c(OC)c(O)cc3c1[C@H](C2)N(C)CC3 [RACEMOSIDINE C] ?
Result :: < 5.00

Query :: I am curious: what pIC50 value has been reported for COc1cc2c3cc1Oc1cc(ccc1O)C[C@H]1c4c(cc(OC)c(OC)c4Oc4ccc(cc4)C[C@H]3N(C)CC2)CCN1C [RACEMOSIDINE B] ?
Result :: < 5.00

The measurements presented in this section are drawn from ChEMBL document CHEMBL1177753.
